Numbers sourced from ChEMBL document CHEMBL5634203.

# testProtocol: Intrinsic clearance in human liver microsomes
# Format: ADME, Microsome
# conditionsUsed: read-out: CLH
resultType: microsomal CLint

{"smilesCode": "CC(C)Oc1cc2nn(C34COC(C)(C3)C4)cc2cc1C(=O)Nc1cccn(C)c1=O", "resultType": "microsomal CLint", "measured": "7.07 µL/min/mg"}
{"smilesCode": "CC(C)Oc1nc2nn(C34COC(C)(C3)C4)cc2cc1C(=O)Nc1cccn([C@@H]2C[C@@H]2F)c1=O", "resultType": "microsomal CLint", "measured": "< 5.3 µL/min/mg"}
{"smilesCode": "CC(C)Oc1nc2nn(C34COC(C)(C3)C4)cc2cc1C(=O)Nc1cccn([C@H]2C[C@H]2F)c1=O", "resultType": "microsomal CLint", "measured": "< 5.3 µL/min/mg"}
{"smilesCode": "CC(C)Oc1cc2nn(C34COC(C)(C3)C4)cc2cc1C(=O)Nc1cccn([C@H]2C[C@H]2F)c1=O", "resultType": "microsomal CLint", "measured": "< 5.3 µL/min/mg"}

----------
// reported logD for each item listed
# testProtocol: Lipophilicity, log D of the compound at pH 7.4
# Type: physicochemical
# conditionsUsed: buffer

{"smilesCode": "CC(C)Oc1cc2nn(C34COC(C)(C3)C4)cc2cc1C(=O)Nc1cccn(C)c1=O", "logD": 2.16}
{"smilesCode": "CC(C)Oc1cc2nn(C34COC(C)(C3)C4)cc2cc1C(=O)Nc1cccn([C@H]2C[C@H]2F)c1=O", "logD": 2.74}
{"smilesCode": "CC(C)Oc1nc2nn(C34COC(C)(C3)C4)cc2cc1C(=O)Nc1cccn([C@@H]2C[C@@H]2F)c1=O", "logD": 2.61}
{"smilesCode": "CC(C)Oc1nc2nn(C34COC(C)(C3)C4)cc2cc1C(=O)Nc1cccn([C@H]2C[C@H]2F)c1=O", "logD": 2.54}

----------
We begin with a simple list: items and their reported CLH.
# testProtocol: Intrinsic clearance in human hepatocytes
# Assay type: ADME, cell-based, Hepatocyte

{"smilesCode": "CC(C)Oc1cc2nn(C34COC(C)(C3)C4)cc2cc1C(=O)Nc1cccn([C@H]2C[C@H]2F)c1=O", "CLH": "3.8 µL/min/mg"}
{"smilesCode": "CC(C)Oc1nc2nn(C34COC(C)(C3)C4)cc2cc1C(=O)Nc1cccn([C@H]2C[C@H]2F)c1=O", "CLH": "3 µL/min/mg"}
{"smilesCode": "CC(C)Oc1cc2nn(C34COC(C)(C3)C4)cc2cc1C(=O)Nc1cccn(C)c1=O", "CLH": "3.43 µL/min/mg"}
{"smilesCode": "CC(C)Oc1nc2nn(C34COC(C)(C3)C4)cc2cc1C(=O)Nc1cccn([C@@H]2C[C@@H]2F)c1=O", "CLH": "3.3 µL/min/mg"}

----------
Reported clearance by item:
# testProtocol: Clearance in Sprague-Dawley rat measured for 4 hrs by LC-MS/MS analysis
# Assay type: ADME
# conditionsUsed: in vivo

{"smilesCode": "CC(C)Oc1nc2nn(C34COC(C)(C3)C4)cc2cc1C(=O)Nc1cccn([C@H]2C[C@H]2F)c1=O", "clearance": "43 mL/min/kg"}
{"smilesCode": "CC(C)Oc1cc2nn(C34COC(C)(C3)C4)cc2cc1C(=O)Nc1cccn(C)c1=O", "clearance": "11.2 mL/min/kg"}
